Test system: SK-MEL-28 melanoma
Test: NCI tumour cell line growth inhibition, 48 h
# TGI per entry
Measured Property: TGI

molecule=O=c1c(O)cccn1CCCN(CCCn1cccc(O)c1=O)CCn1cccc(O)c1=O measured_property=TGI val="> 100 µM"
molecule=Cc1cc(S(=O)(=O)Nc2nc3ccccc3n2-c2ccccc2)c(S)cc1Cl measured_property=TGI val="> 100 µM"
molecule=Cc1c2ccncc2c(C)c2c1c1cc(CO)ccc1n2C measured_property=TGI val="6.5 µM"
molecule=O=C1c2ccccc2C(=O)N1C1(C(=O)NC2(C(=O)O)CCCC2)CCCC1 measured_property=TGI val="> 100 µM"
molecule=COc1ccc(Cc2nc3ccccc3s2)cc1OC measured_property=TGI val="31.9 µM"
molecule=O=[N+]([O-])c1ccc2c(Nc3ccccc3-c3ccccc3Nc3c4ccccc4nc4cc([N+](=O)[O-])ccc34)c3ccccc3nc2c1 measured_property=TGI val="59.1 µM"
molecule=CCOC(=O)c1c(NCc2ccccc2)n(-c2ccccc2)c(=S)n(-c2ccccc2)c1=O measured_property=TGI val="> 100 µM"
molecule=Clc1ccccc1NN(Cc1ccncc1)c1ccccc1Cl measured_property=TGI val="40.7 µM"
molecule="CCCCCCCCCCCCCP(=O)(NCC(N)=O)OCC (stereo unspecified)" measured_property=TGI val="32.3 µM"
molecule=COc1cc(OC)cc(-n2c(N)c(-c3nc4ccccc4n3C)c3ccc([N+](=O)[O-])cc3c2=O)c1 measured_property=TGI val="> 100 µM"
molecule="COc1cc(C2CC(=O)Nc3c2cc(Br)c2ccccc32)cc(Br)c1OC (stereo unspecified)" measured_property=TGI val="> 100 µM"
molecule=CC(=O)[CH-]C(=O)Nc1ccccc1.CC(=O)[CH-]C(=O)Nc1ccccc1.CC[O-].CC[O-].[Ti+4] measured_property=TGI val="> 100 µM"
molecule=O/N=C1\CCc2nonc2\C1=N/Nc1ccccc1 measured_property=TGI val="> 100 µM"
molecule="CC1(C)CC2=C(Sc3ccccc3N2)C(=O)C1C(=O)C(=O)Nc1cc(Cl)ccc1Cl (stereo unspecified)" measured_property=TGI val="> 100 µM"
molecule=OCc1ccc(N2CCCC2)cc1Cl measured_property=TGI val="> 100 µM"
molecule="CCN1C(=O)N(CC)C2C1NN=c1s/c(=C\\c3ccc[nH]3)c(=O)n12 (stereo unspecified)" measured_property=TGI val="> 100 µM"
molecule="NCCC(=O)NC(Cc1cnc[nH]1)C(=O)O (stereo unspecified)" measured_property=TGI val="> 100 µM"
molecule=COC(=O)/C=C/c1cc(OC)c2oc(-c3ccc(OC)c(OC)c3)c(C(=O)OC)c2c1 measured_property=TGI val="> 100 µM"
molecule=Cc1ccc(Sc2oc(-c3ccc(C)cc3)nc2[P+](c2ccccc2)(c2ccccc2)c2ccccc2)cc1 measured_property=TGI val="1.87 µM"
molecule="O=C1CSC(c2ccccc2O)N1c1nnc(Cn2ccnc2)o1 (stereo unspecified)" measured_property=TGI val="41.2 µM"
molecule=N#CC(C#N)=C(N)/C(C#N)=C/c1ccc2[nH]ccc2c1 measured_property=TGI val="> 100 µM"
